// reported Human GLP-1 R activity (cAMP release), % activity with respect to control per item
Target: Human GLP-1 receptor (Homo sapiens, UniProt P43220)
Construct: The full-length cDNA was cloned in pcDNA3.1(+); expressed in transfected cells
Sequence (P43220 24-463): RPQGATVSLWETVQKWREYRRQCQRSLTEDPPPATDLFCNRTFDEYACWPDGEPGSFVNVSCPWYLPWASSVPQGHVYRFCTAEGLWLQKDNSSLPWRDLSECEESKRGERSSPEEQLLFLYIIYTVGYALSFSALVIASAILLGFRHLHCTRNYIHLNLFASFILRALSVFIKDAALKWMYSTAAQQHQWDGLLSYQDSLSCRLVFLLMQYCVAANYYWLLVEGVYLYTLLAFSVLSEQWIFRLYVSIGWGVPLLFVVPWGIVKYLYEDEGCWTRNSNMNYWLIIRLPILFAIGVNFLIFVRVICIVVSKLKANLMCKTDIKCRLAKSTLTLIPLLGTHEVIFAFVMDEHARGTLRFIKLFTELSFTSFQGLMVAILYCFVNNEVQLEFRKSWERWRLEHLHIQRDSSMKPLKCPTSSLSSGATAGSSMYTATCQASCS
Assay: In vitro Human GLP-1 R agonist activity (cyclic AMP determination) in CHO/human GLP1R cells
Assay type: cell-based
Settings: 1 nM test compound
Numeric answer only, unit % assumed.

Worked cases, answers included:
CCc1cc(OC)ccc1-c1ccc(CC(NC(=O)[C@H](CC(=O)O)NC(=O)[C@H](CO)NC(=O)[C@@H](NC(=O)C(C)(Cc2ccccc2F)NC(=O)[C@@H](NC(=O)CNC(=O)C(CCC#N)NC(=O)C(C)(C)NC(=O)[C@@H](N)Cc2c[nH]cn2)[C@H](C)O)[C@H](C)O)C(=S)NC(CCCc2ccccc2)C(N)=O)cc1 (single isomer, unassigned) [compound 166] : 96
CCc1cc(OC)ccc1-c1ccc(CC(NC(=O)[C@H](CC(=O)O)NC(=O)[C@H](CO)NC(=O)[C@@H](NC(=O)[C@H](Cc2ccccc2)NC(=O)[C@@H](NC(=O)CNC(=O)[C@H](CCC(N)=O)NC(=O)C(C)(C)NC(=O)[C@@H](N)Cc2c[nH]cn2)[C@@H](C)O)[C@@H](C)O)C(=O)NC(CCCc2cccc(Cl)c2)C(N)=O)cc1 (single isomer, unassigned) [compound 19] : 99

Ask: Fill blank: measured Human GLP-1 R activity (cAMP release), % activity with respect to control of the compound CCc1cc(OC)ccc1-c1ccc(CC(NC(=O)[C@H](CC(=O)O)NC(=O)[C@H](CO)NC(=O)[C@@H](NC(=O)[C@H](Cc2ccccc2)NC(=O)[C@@H](NC(=O)CNC(=O)C(CCC#N)NC(=O)C(C)(C)NC(=O)[C@@H](N)Cc2c[nH]cn2)[C@@H](C)O)[C@@H](C)O)C(=O)NC(CCCc2ccccc2)C(N)=O)cc1 (single isomer, unassigned) [compound 29] is ____.
Result: 96

* * *

Attribute: % degradation of peptidomimetics in 24 h when incubated with human plasma
Assay: Stability in human plasma
Assay type: in vitro ADME
Details: 2 μM peptidomimetic, pooled human plasma, 37° C., 24 h
Give the value in % but do not write % after it.

CCc1cc(OC)ccc1-c1ccc(CC(NC(=O)[C@H](CC(=O)O)NC(=O)[C@H](CO)NC(=O)[C@@H](NC(=O)[C@H](Cc2ccccc2)NC(=O)[C@@H](NC(=O)CNC(=O)C(CCC#N)NC(=O)C(C)(C)NC(=O)[C@@H](N)Cc2c[nH]cn2)[C@@H](C)O)[C@@H](C)O)C(=O)NC(CCCc2ccccc2F)C(N)=O)cc1 (single isomer, unassigned) : 75

Ask: I'd like to know its % degradation of peptidomimetics in 24 h when incubated with human plasma. The compound in question is CCc1cc(OC)ccc1-c1ccc(CC(NC(=O)[C@H](CC(=O)O)NC(=O)[C@H](CO)NC(=O)[C@@H](NC(=O)C(C)(Cc2ccccc2F)NC(=O)[C@@H](NC(=O)CNC(=O)C(CCC#N)NC(=O)C(C)(C)NC(=O)[C@@H](N)Cc2c[nH]cn2)[C@H](C)O)[C@H](C)O)C(=O)N(C)C(CCCc2ccccc2F)C(N)=O)cc1 (single isomer, unassigned)
Result: 77

Ask: What value of measured % degradation of peptidomimetics in 24 h when incubated with human plasma is listed for CCc1cc(OC)ccc1-c1ccc(CC(CNC(CCCc2ccccc2)C(N)=O)NC(=O)[C@H](CC(=O)O)NC(=O)[C@H](CO)NC(=O)[C@@H](NC(=O)C(C)(Cc2ccccc2F)NC(=O)[C@@H](NC(=O)CNC(=O)[C@H](CC(C(F)(F)F)C(F)(F)F)NC(=O)C(C)(C)NC(=O)[C@@H](N)Cc2c[nH]cn2)[C@H](C)O)[C@H](C)O)cc1 (stereo partly shown) ?
Result: 00

The measured values listed here are drawn from patent US8883963B2.
